Target: human clotting factor VIIa (Homo sapiens)
Sequence (P08709 213-466 limits assumed): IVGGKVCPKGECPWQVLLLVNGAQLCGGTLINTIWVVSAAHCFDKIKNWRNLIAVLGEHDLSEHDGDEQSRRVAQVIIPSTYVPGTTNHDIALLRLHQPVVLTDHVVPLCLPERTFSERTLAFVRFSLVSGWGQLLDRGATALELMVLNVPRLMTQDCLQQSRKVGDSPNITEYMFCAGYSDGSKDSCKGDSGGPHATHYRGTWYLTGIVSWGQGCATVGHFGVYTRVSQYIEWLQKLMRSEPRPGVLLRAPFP
Sequence (P08709 61-212 limits assumed): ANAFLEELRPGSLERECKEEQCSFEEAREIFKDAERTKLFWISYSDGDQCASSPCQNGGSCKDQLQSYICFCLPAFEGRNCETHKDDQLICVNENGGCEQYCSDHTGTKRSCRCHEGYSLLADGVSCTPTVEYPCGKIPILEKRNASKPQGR
Sequence (P13726 33-295 partner): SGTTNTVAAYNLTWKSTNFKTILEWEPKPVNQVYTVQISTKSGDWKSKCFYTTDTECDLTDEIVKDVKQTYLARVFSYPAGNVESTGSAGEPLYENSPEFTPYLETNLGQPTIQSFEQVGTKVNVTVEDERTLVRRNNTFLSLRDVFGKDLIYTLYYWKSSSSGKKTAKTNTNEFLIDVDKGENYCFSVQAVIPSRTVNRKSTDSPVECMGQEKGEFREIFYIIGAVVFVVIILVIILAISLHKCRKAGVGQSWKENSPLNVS
Structures can show the parent of a compound that is named as a salt.
Assign pIC50 to each entry below.
Hey, just a heads up that pIC50 is the negative log base 10 of the concentration in molar.

[ask] Fill in: pIC50 of COc1cc(F)c(C(Nc2ccc(C(=N)N)cc2)c2nn(-c3ncccn3)c(=O)[nH]2)cc1OC (racemic) [Example 111, acetate] is ___
[reply] 7.95

[ask] What measured pIC50 goes with CCOc1cc(OCCF)cc(C(Nc2ccc(C(=N)N)cc2)c2nn(-c3ncccn3)c(=O)[nH]2)c1 (racemic) [Example 78, trifluoroacetate] ?
[reply] 7.90

[ask] Record request: pIC50 value, item COCc1cc(OC)cc(C(Nc2ccc(C(=N)N)cc2)c2nn(-c3cccnn3)c(=O)[nH]2)c1 (racemic) [Example 73, trifluoroacetate]
[reply] 7.95

Recorded values, source patent US7816522B2.
